Assay: basal RPMI8226 viability, no added stimulus, profiling panel, cell-based, calcein-AM fluorescence, 48 h, PK04 Diversity Set (AID 1166);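 also: cells grown under basal conditions without added stimulus; test concentration not given here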
Conditions: RPMI8226 myeloma viability, higher = more signal
For each entry below, report its z-score value.
Numbers only.

The cases that follow already have their z-score on record.
Molecule | Measurement
CC(=O)OC[C@H]1O[C@H](C#CC(C)(C)C)C=C[C@@H]1OC(C)=O | -1.73
C=CCN(CCCCC)C(=O)C1N(c2c(Cl)cccc2CO)C(=O)C2C(C(=O)O)C3C=CC21O3 (stereo unspecified) | -1.09
CC(C)C(=O)N[C@@H]1CCCN1C(=O)C=Cc1ccccc1 | -0.463
C[C@@H]1CC[C@@H](C(=O)O)N[C@H]1c1ccc(-c2ccco2)cc1 | 0.404
CO[C@@H]1C=CCC(=O)N2CCC[C@H]2C(=O)OC[C@H](C)C(=O)OC[C@H]1C | -0.87
C[C@@H](ON=C1[C@H]2CCn3c(=O)n(-c4ccccc4)c(=O)n3[C@H]2[C@H](O)[C@@H]2O[C@H]12)c1cn([C@H](CO)Cc2ccccc2)nn1 | -0.259
CCOC(=O)[C@H](CC(C)C)NC(=O)CCC1CC(OC(=O)NCc2cccc3ccccc23)CC2(CCCC(COC(=O)NCc3ccccc3)O2)O1 (stereo partly specified) | 0.0523
CCN1C(=O)[C@H]2[C@H]3[C@H](O)[C@H](O)CC(=NNC(=O)OCc4ccc(OC)cc4)[C@H]3CC[C@H]2C1=O | -0.261
CCOC(=O)NN=C1C[C@@H](O)[C@@H](O)[C@@H]2[C@@H]3C(=O)N(Cc4ccc5c(c4)OCO5)C(=O)[C@@H]3CC[C@@H]12 | 0.466
CCCNC(=O)OC[C@H]1O[C@H](CCON=C(C)CCN2CCc3nc(-c4ccccc4)c(-c4ccccc4)cc3C2)C=C[C@@H]1Oc1ccc(OC)cc1 | -0.794

# get_value(readout='z-score', item= C=C(C)C(=O)OC[C@@H]1CN2[C@@H](CC[C@@H](C)[C@@H]2c2ccc(Br)cc2)C(=O)O1 ) 0.427
